Origin of measurements: ChEMBL document CHEMBL1140727

- METHOD_NOTES: Inhibition of human ODCase
READOUT_LABEL: Ki (µM)
Give a bare numeral; the unit µM is implied.

Data request: Which Ki value belongs to Nc1ncnc2c1ncn2[C@H]1C[C@H](O)[C@@H](COP(=O)(O)O)O1 ?
Data returned: 7400

Data request: Can you check O=c1ccn([C@@H]2O[C@H](COP(=O)(O)O)[C@@H](O)[C@H]2O)c(=O)[nH]1 next?
Data returned: 220

Data request: Record: Cc1cn([C@H]2C[C@H](O)[C@@H](COP(=O)(O)O)O2)c(=O)[nH]c1=O
Data returned: 8700

Data request: Next molecule up: Nc1ccn([C@@H]2O[C@H](COP(=O)(O)O)[C@@H](O)[C@H]2O)c(=O)n1
Data returned: 1400

Data request: Repeat for the following molecule: O=c1[nH]c(=O)c2ncn([C@@H]3O[C@H](COP(=O)(O)O)[C@@H](O)[C@H]3O)c2[nH]1
Data returned: 0.7

Data request: Now consider Nc1ncnc2c1ncn2[C@@H]1O[C@H](COP(=O)(O)O)[C@@H](O)[C@H]1O and answer again.
Data returned: 4300
